What combination Emax was measured for each of the following?
# System: PANC-04-03 (Pancreatic Carcinoma)
# protocolNotes: combination Emax (second highest fraction inhibited in the dose matrix, 72 h); higher = more inhibition; extreme values may be limits of the assay
Give bare numbers.

Some molecules with recorded combination Emax:
C[C@@H](c1ccc2nccn2c1)n1nnc2ncc(-c3cnn(C)c3)nc21 [Savolitinib] + CC1(C)CCC(CN2CCN(c3ccc(C(=O)NS(=O)(=O)c4ccc(NCC5CCOCC5)c([N+](=O)[O-])c4)c(Oc4cnc5[nH]ccc5c4)c3)CC2)=C(c2ccc(Cl)cc2)C1 [Venetoclax] (first compound max 1 µM, 7x7, partner max 1 µM) :: 0.202
CC(=O)c1c(C)c2cnc(Nc3ccc(N4CCNCC4)cn3)nc2n(C2CCCC2)c1=O [Palbociclib] + Cc1c2c(nn1C)CSCc1cc(n(C)n1)CSc1cc(c3ccccc3c1)OCCCc1c(C(=O)O)n(C)c3c-2c(Cl)ccc13 [AZD5991] (first compound max 10 µM, 7x7, partner max 1 µM) :: 0.196

// next entry
Challenge: # get_value(readout='combination Emax', item= COc1cccc(OCCCN)c1-c1cc(Nc2cnc(C#N)cn2)n[nH]1 [Prexasertib] + C[C@@H]1COCCN1C2=NC(=NC(=C2)C3(CC3)[S@](=N)(=O)C)C4=C5C=CNC5=NC=C4 [AZD6738] (first compound max 1 µM, 7x7, partner max 10 µM) )
Response given: 0.555

----------
# Test system: NB69 (Neuroblastoma)
# protocolNotes: combination Emax (second highest fraction inhibited in the dose matrix, 72 h); higher = more inhibition; extreme values may be limits of the assay
endpoint: combination Emax
Answers are plain numbers.

Consider the reported combination Emax for these compounds:
N#Cc1cnc(Nc2cc(NC[C@H]3CNCCO3)c(C(F)(F)F)cn2)cn1 [SRA737] + C=CCn1c(=O)c2cnc(Nc3ccc(N4CCN(C)CC4)cc3)nc2n1-c1cccc(C(C)(C)O)n1 [AZD1775] (first compound max 10 µM, partner max 1 µM) :: 0.969
N#Cc1cnc(Nc2cc(NC[C@H]3CNCCO3)c(C(F)(F)F)cn2)cn1 [SRA737] + O=c1[nH]cc(F)c(=O)[nH]1 [5-Fluorouracil] (first compound max 10 µM, 7x7, partner max 20 µM) :: 0.805
Cn1cnc2c(F)c(Nc3ccc(Br)cc3Cl)c(C(=O)NOCCO)cc21 [Selumetinib] + C[C@@H]1COCCN1C2=NC(=NC(=C2)C3(CC3)[S@](=N)(=O)C)C4=C5C=CNC5=NC=C4 [AZD6738] (first compound max 10 µM, 7x7, partner max 10 µM) :: 0.999

Okay, next one:
Challenge: Query: combination Emax; subject: Cc1c2c(nn1C)CSCc1cc(n(C)n1)CSc1cc(c3ccccc3c1)OCCCc1c(C(=O)O)n(C)c3c-2c(Cl)ccc13 [AZD5991] + CC1(C)CCC(CN2CCN(c3ccc(C(=O)NS(=O)(=O)c4ccc(NCC5CCOCC5)c([N+](=O)[O-])c4)c(Oc4cnc5[nH]ccc5c4)c3)CC2)=C(c2ccc(Cl)cc2)C1 [Venetoclax] (first compound max 1 µM, 7x7, partner max 1 µM)
Response given: 0.877

----------
# Tested on: SW13 (Other Solid Carcinomas)
# protocolNotes: combination Emax (second highest fraction inhibited in the dose matrix, 72 h); higher = more inhibition; extreme values may be limits of the assay
endpoint: combination Emax
Give bare numbers.

CC(=O)Nc1cccc(-n2c(=O)n(C3CC3)c(=O)c3c(Nc4ccc(I)cc4F)n(C)c(=O)c(C)c32)c1 [Trametinib] + Cc1nc(-c2cn3c(n2)-c2ccc(-c4cnn(C(C)(C)C(N)=O)c4)cc2OCC3)n(C(C)C)n1 [Taselisib] (first compound max 1 µM, 7x7, partner max 10 µM) :: 0.929
CCc1c2c(nc3ccc(O)cc13)-c1cc3c(c(=O)n1C2)COC(=O)[C@]3(O)CC [SN-38] + CN(C)CCCOc1ccc(-c2ccc3ncc4c(c3c2)n(C2CCOCC2)c(=O)n4C)cn1 [AZD0156] (first compound max 0.3 µM, 7x7, partner max 1 µM) :: 0.988

Report combination Emax for each item below.
1. C=CCn1c(=O)c2cnc(Nc3ccc(N4CCN(C)CC4)cc3)nc2n1-c1cccc(C(C)(C)O)n1 [AZD1775] + C[C@@H]1COCCN1C2=NC(=NC(=C2)C3(CC3)[S@](=N)(=O)C)C4=C5C=CNC5=NC=C4 [AZD6738] (first compound max 1 µM, partner max 10 µM)
2. Cc1c2c(nn1C)CSCc1cc(n(C)n1)CSc1cc(c3ccccc3c1)OCCCc1c(C(=O)O)n(C)c3c-2c(Cl)ccc13 [AZD5991] + CC(=O)O[C@H]1C(=O)[C@@]2(C)[C@H]([C@H](OC(=O)c3ccccc3)[C@]3(O)C[C@H](OC(=O)[C@H](O)[C@@H](NC(=O)c4ccccc4)c4ccccc4)C(C)=C1C3(C)C)[C@]1(OC(C)=O)CO[C@@H]1C[C@@H]2O [Paclitaxel] (first compound max 1 µM, 7x7, partner max 3 µM)
3. C=CCn1c(=O)c2cnc(Nc3ccc(N4CCN(C)CC4)cc3)nc2n1-c1cccc(C(C)(C)O)n1 [AZD1775] + CCc1c2c(nc3ccc(O)cc13)-c1cc3c(c(=O)n1C2)COC(=O)[C@]3(O)CC [SN-38] (first compound max 1 µM, partner max 0.3 µM)

Response given:
0.636
1
0.964

For every listed record, write down its combination Emax.
1. CN(CCO)CC[C@H](CSc1ccccc1)Nc1ccc(S(=O)(=O)NC(=O)c2ccc(N3CCC([C@@H](O)c4ccccc4-c4ccc(Cl)cc4)CC3)cc2)cc1S(=O)(=O)C(F)(F)F [AZD4320] + C=CCn1c(=O)c2cnc(Nc3ccc(N4CCN(C)CC4)cc3)nc2n1-c1cccc(C(C)(C)O)n1 [AZD1775] (first compound max 1 µM, partner max 1 µM)
2. COc1cccc(OCCCN)c1-c1cc(Nc2cnc(C#N)cn2)n[nH]1 [Prexasertib] + CCc1c2c(nc3ccc(O)cc13)-c1cc3c(c(=O)n1C2)COC(=O)[C@]3(O)CC [SN-38] (first compound max 1 µM, 7x7, partner max 0.3 µM)
3. CN(CCO)CC[C@H](CSc1ccccc1)Nc1ccc(S(=O)(=O)NC(=O)c2ccc(N3CCC([C@@H](O)c4ccccc4-c4ccc(Cl)cc4)CC3)cc2)cc1S(=O)(=O)C(F)(F)F [AZD4320] + CS(=O)(=O)CCNCc1ccc(-c2ccc3ncnc(Nc4ccc(OCc5cccc(F)c5)c(Cl)c4)c3c2)o1 [Lapatinib] (first compound max 1 µM, 7x7, partner max 10 µM)
4. Cc1c2c(nn1C)CSCc1cc(n(C)n1)CSc1cc(c3ccccc3c1)OCCCc1c(C(=O)O)n(C)c3c-2c(Cl)ccc13 [AZD5991] + CS(=O)(=O)CCNCc1ccc(-c2ccc3ncnc(Nc4ccc(OCc5cccc(F)c5)c(Cl)c4)c3c2)o1 [Lapatinib] (first compound max 1 µM, 7x7, partner max 10 µM)

Response given:
1: 0.167; 2: 0.996; 3: 0.804; 4: 0.973

For every listed record, write down its combination Emax.
1. Cn1cnc2c(F)c(Nc3ccc(Br)cc3Cl)c(C(=O)NOCCO)cc21 [Selumetinib] + CCN(CCO)CCCOc1ccc2c(Nc3cc(CC(=O)Nc4cccc(F)c4)[nH]n3)ncnc2c1 [AZD2811] (first compound max 10 µM, 7x7, partner max 1 µM)
2. Cc1c2c(nn1C)CSCc1cc(n(C)n1)CSc1cc(c3ccccc3c1)OCCCc1c(C(=O)O)n(C)c3c-2c(Cl)ccc13 [AZD5991] + CC1(C)CCC(CN2CCN(c3ccc(C(=O)NS(=O)(=O)c4ccc(NCC5CCOCC5)c([N+](=O)[O-])c4)c(Oc4cnc5[nH]ccc5c4)c3)CC2)=C(c2ccc(Cl)cc2)C1 [Venetoclax] (first compound max 1 µM, 7x7, partner max 1 µM)
3. CC1(C)CCC(CN2CCN(c3ccc(C(=O)NS(=O)(=O)c4ccc(NCC5CCOCC5)c([N+](=O)[O-])c4)c(Oc4cnc5[nH]ccc5c4)c3)CC2)=C(c2ccc(Cl)cc2)C1 [Venetoclax] + C[C@@H](Nc1cc(F)cc(F)c1)c1cc(C(=O)N(C)C)cc2c(=O)cc(N3CCOCC3)oc12 [AZD8186] (first compound max 1 µM, 7x7, partner max 3 µM)
4. COc1cc2c(cc1OCCCCCOc1cc3c(cc1OC)C(=O)N1C=C(C)C[C@H]1C=N3)N=C[C@@H]1CC(C)=CN1C2=O [SG3199] + O=C(c1cc(Cc2n[nH]c(=O)c3ccccc23)ccc1F)N1CCN(C(=O)C2CC2)CC1 [Olaparib] (first compound max 0.001 µM, 7x7, partner max 10 µM)

Response given:
1. 0.615
2. 0.927
3. 0.128
4. 0.0899

----------
Would you kindly list combination Emax for each of these molecules?
# System: EoL-1-cell (Acute Myeloid Leukemia)
# protocolNotes: combination Emax (second highest fraction inhibited in the dose matrix, 72 h); higher = more inhibition; extreme values may be limits of the assay

Some entries whose results are on file:
COc1cccc(OCCCN)c1-c1cc(Nc2cnc(C#N)cn2)n[nH]1 [Prexasertib] + O=C(c1cc(Cc2n[nH]c(=O)c3ccccc23)ccc1F)N1CCN(C(=O)C2CC2)CC1 [Olaparib] (first compound max 1 µM, 7x7, partner max 10 µM) :: 1
Cc1c2c(nn1C)CSCc1cc(n(C)n1)CSc1cc(c3ccccc3c1)OCCCc1c(C(=O)O)n(C)c3c-2c(Cl)ccc13 [AZD5991] + C[C@@H]1COCCN1C2=NC(=NC(=C2)C3(CC3)[S@](=N)(=O)C)C4=C5C=CNC5=NC=C4 [AZD6738] (first compound max 1 µM, 7x7, partner max 10 µM) :: 1
CS(=O)(=O)CCNCc1ccc(-c2ccc3ncnc(Nc4ccc(OCc5cccc(F)c5)c(Cl)c4)c3c2)o1 [Lapatinib] + Cn1cnc2c(F)c(Nc3ccc(Br)cc3Cl)c(C(=O)NOCCO)cc21 [Selumetinib] (first compound max 10 µM, 7x7, partner max 10 µM) :: 0.832

# ---- query molecule ----
Challenge: For the molecule COc1cccc(OCCCN)c1-c1cc(Nc2cnc(C#N)cn2)n[nH]1 [Prexasertib] + C[C@@H]1COCCN1C2=NC(=NC(=C2)C3(CC3)[S@](=N)(=O)C)C4=C5C=CNC5=NC=C4 [AZD6738] (first compound max 1 µM, 7x7, partner max 10 µM) , what combination Emax is on record?
Response given: 0.996
